System: P. falciparum stage V gametocytes
Design: BacTiter-Glo ATP luminescence viability of purified stage V gametocytes in 384-well plates, per cent inhibition versus DMSO
ASSAY_CONDITIONS: 48 h, 5 µM; inhibitor
Out of some 13,000 compounds screened, about 3,200 (25%) showed an effect of 50% or more. Some of the results follow.
Listed here are molecules together with their documented % Inhibition.
MEASURED_PROPERTY: % Inhibition (%)

>>> print(df.to_string())
                                    molecule  quantitative_readout
 0       CCOC(=O)c1c[nH]c2c(ccc3ccccc32)c1=O                 33.13
 1   CCOc1ccccc1CNc1nccc(NCc2ccc(Cl)cc2Cl)n1                  39.1
 2  CCCO[C@H](C(=O)OC)[C@@H](CC1Cc2ccccc2C1)C(=O)NCCC1=CCCCC1                -16.75
 3         NC(N)=NC(=O)Nc1cc(Cl)c(Br)c(Cl)c1                -11.69
 4  COc1ccc(OC)c(NC(=O)C2c3ccccc3C(=O)N(CC(C)C)C2c2cccs2)c1 (stereo not drawn)                 26.61
 5  CN1CCN(CC2(Nc3nccc(NCc4ccc(Cl)cc4Cl)n3)CCCCC2)CC1                 73.23
 6  COc1ccc(CNCc2cccc(-c3ccc(-c4nc5ccccc5[nH]4)s3)c2)cc1.O=C(O)C(F)(F)F                  7.28
 7  COc1cc2sc(=NC(=O)c3cccc([N+](=O)[O-])c3)n(C)c2cc1OC                 16.54
 8           Nc1cc(-c2ccc(Br)cc2O)nc2ccccc12                 61.65
 9  Cn1cc(CCNc2ccnc(NCCc3coc4ccccc34)n2)c2ccccc21                 46.44
10    CCn1c(/C=C/c2cc(Br)ccc2O)nc2ccccc2c1=O                 7.095
11           Nc1cc(C=Cc2ccc(O)cc2)nc2ccccc12                -27.13
12  CCn1c(=O)c(C(=O)Nc2cc(Cl)c(OC)cc2OC)nc2ccccc21                -72.41
13  O=S(=O)(Nc1cccc(CCN2CCCCC2CCN2CCCC2)c1)c1cccc2ccccc12 (stereo not drawn)                 40.53
14  COc1cc(OC)c(NC(=O)C2c3ccccc3C(=O)N(CC(C)C)C2c2cccs2)cc1Cl (stereo not drawn)                  55.1
15  CCCCOc1cc2[nH]cc(C(=O)OCC)c(=O)c2cc1OCCCC                 63.76
16               OCCN1CCN(C(=S)NC2CCCCC2)CC1                -10.92
17  CCc1ccc(S(=O)(=O)Nc2ccc(CCN(C)C3CCN(C)CC3)cc2)cc1                 40.08
